Kindly supply the reported inhibition at 1 h, 20 µM values for the records listed here.
target: UniProt:P11712; assay: Inhibition of CYP2C9 in human liver microsomes at 20 uM using tolbutamide as substrate incubated for 60 mins by HPLC analysis relative to control; assay type: ADME; conditions: probe tolbutamide
Sequence (P11712 whole entry): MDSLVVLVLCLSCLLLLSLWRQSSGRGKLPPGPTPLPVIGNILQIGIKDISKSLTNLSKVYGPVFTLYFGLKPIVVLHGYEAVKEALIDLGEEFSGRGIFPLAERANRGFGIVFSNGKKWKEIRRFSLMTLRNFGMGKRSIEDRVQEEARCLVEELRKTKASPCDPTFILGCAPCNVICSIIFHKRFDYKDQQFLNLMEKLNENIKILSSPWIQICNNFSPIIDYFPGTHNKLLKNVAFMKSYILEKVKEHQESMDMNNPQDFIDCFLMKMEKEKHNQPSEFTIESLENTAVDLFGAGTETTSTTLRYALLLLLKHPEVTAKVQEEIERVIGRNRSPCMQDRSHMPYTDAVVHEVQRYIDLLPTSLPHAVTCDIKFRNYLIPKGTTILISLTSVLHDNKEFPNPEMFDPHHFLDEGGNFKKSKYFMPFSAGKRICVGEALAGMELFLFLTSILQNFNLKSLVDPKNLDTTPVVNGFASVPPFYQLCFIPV
The figure you give is taken to be in %; do not add the unit.

Qu. # inhibition at 1 h, 20 µM lookup, item CC#Cc1nnn(Cc2ccc(C(F)(F)F)cc2)c1C(=O)N[C@@H](C)c1ccc(C(=O)O)cc1
Ans. 69

Qu. # inhibition at 1 h, 20 µM lookup, item C[C@H](NC(=O)c1c(-c2ccsc2)nnn1Cc1ccc(C(F)(F)F)cc1)c1ccc(C(=O)O)cc1
Ans. 48

Qu. # inhibition at 1 h, 20 µM lookup, item C[C@H](NC(=O)c1c(-c2ccccc2)nnn1CCOc1cccc(C(F)(F)F)c1)c1ccc(C(=O)O)cc1
Ans. 67

Qu. # inhibition at 1 h, 20 µM lookup, item C[C@H](NC(=O)c1c(C(F)F)nn(C)c1Oc1cccc(C(F)(F)F)c1)c1ccc(C(=O)O)cc1
Ans. 67

Qu. # inhibition at 1 h, 20 µM lookup, item C/C=C/c1nnn(Cc2ccc(C(F)(F)F)cc2)c1C(=O)N[C@@H](C)c1ccc(C(=O)O)cc1
Ans. 33
